# System: U87MG cells
# assayExplanation: XTT assay for cell viability, U87MG cells
# Format: cell-based
# particulars: Homo sapiens, U-87 MG, read-out: inhibition of U87MG cell proliferation, IC50
metric: IC50

{"smilesInput": "CC(=O)Nc1cccc(-c2cnc3c(N4CCOCC4)nc(-c4cnc(N)nc4)nc3c2)c1", "measuredOn": "U87MG cells", "IC50": "< 600 nM"}

The reported IC50 of the compound "Nc1ncc(-c2nc(N3CCOCC3)c3ncc(-c4cccc(NC(=O)C5CC5)c4)cc3n2)cn1" was < 600 nM

====

Consider the following IC50 values measured on PI3Kα (wild-type) (Homo sapiens, UniProt P42336).
Sequence (P42336 whole entry, species assumed): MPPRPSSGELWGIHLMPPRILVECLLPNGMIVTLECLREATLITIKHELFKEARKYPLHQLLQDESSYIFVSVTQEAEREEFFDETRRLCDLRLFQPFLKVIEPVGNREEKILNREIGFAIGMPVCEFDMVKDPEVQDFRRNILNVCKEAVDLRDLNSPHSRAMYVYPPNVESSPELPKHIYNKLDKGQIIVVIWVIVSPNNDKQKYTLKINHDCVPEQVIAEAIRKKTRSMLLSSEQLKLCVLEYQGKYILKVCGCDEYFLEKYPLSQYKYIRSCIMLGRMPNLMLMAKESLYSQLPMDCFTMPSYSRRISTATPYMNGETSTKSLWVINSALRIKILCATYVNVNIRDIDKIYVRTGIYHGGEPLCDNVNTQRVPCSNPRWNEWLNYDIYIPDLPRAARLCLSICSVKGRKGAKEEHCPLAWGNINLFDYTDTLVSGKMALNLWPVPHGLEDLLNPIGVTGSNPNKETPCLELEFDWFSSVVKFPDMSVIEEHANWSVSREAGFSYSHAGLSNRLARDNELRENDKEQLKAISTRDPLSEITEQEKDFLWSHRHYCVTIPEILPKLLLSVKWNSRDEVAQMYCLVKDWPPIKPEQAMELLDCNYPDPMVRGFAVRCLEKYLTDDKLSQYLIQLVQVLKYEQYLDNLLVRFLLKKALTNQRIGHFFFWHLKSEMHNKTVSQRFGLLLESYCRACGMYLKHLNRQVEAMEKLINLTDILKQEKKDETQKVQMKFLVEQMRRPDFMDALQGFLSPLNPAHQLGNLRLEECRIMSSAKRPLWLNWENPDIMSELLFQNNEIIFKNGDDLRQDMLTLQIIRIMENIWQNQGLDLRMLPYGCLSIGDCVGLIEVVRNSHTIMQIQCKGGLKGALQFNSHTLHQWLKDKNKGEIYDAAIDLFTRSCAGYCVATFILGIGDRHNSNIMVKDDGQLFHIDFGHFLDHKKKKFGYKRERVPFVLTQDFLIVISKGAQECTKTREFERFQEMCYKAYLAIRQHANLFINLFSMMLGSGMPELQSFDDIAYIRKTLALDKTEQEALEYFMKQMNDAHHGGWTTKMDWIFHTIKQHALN
Sequence (P27986 whole entry partner, species assumed): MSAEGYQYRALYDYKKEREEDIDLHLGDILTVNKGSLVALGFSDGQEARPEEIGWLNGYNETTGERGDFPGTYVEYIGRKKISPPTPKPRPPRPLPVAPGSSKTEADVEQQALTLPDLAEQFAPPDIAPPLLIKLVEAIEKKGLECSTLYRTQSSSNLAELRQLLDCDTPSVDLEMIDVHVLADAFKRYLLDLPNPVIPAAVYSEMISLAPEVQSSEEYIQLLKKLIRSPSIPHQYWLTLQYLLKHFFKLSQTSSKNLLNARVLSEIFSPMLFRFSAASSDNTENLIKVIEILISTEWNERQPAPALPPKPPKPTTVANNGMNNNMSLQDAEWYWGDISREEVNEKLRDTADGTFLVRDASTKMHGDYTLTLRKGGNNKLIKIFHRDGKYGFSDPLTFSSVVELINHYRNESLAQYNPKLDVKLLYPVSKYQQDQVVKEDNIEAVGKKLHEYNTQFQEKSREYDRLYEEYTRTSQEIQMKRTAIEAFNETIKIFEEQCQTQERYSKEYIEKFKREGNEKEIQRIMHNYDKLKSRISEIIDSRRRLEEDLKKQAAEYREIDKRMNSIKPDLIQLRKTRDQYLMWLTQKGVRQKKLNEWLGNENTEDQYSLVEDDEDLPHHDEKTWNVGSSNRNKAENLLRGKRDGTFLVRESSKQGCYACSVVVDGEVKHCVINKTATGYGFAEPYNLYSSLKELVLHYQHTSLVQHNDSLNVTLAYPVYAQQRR

Example results:
{"compound": "CN1CCN(c2cncc(-c3cnc4c(N5CCOCC5)nc(-c5cnc(N)nc5)nc4c3)c2)CC1", "IC50": "< 50 nM"}
{"compound": "Nc1ncc(-c2nc(N3CCOCC3)c3ccc(-c4cncnc4)cc3n2)cn1", "IC50": "201 to 10000 nM"}
{"compound": "Nc1ncc(-c2nc(N3CCOCC3)c3ncc(-c4cccc(NC(=O)C5CCC5)c4)cc3n2)cn1", "IC50": "< 50 nM"}
{"compound": "CNC(=O)Nc1cccc(-c2cnc3c(N4CCOCC4)nc(-c4cnc(N)nc4)nc3c2)c1", "IC50": "< 50 nM"}
{"compound": "Nc1ncc(-c2nc(N3CCOCC3)c3ncc(-c4ccc(NC(=O)C5CCC5)cc4)cc3n2)cn1", "IC50": "< 50 nM"}
{"compound": "Nc1ncc(-c2nc(N3CCOCC3)c3ncc(-c4cccc(NC(=O)N5CCOCC5)c4)cc3n2)cn1", "IC50": "< 50 nM"}

The compound identified as "CNC(=O)c1cccc(-c2cnc3c(N4CCOCC4)nc(-c4cnc(N)nc4)nc3c2)c1" registered its IC50 at < 50 nM

Quick note, IC50 for "Nc1ncc(-c2nc(N3CCOCC3)c3ncc(-c4cccnc4F)cc3n2)cn1" landed at < 50 nM

compound Nc1ncc(-c2nc(N3CCOCC3)c3ncc(-c4cccc(NC(=O)C5CCC(O)CC5)c4)cc3n2)cn1 (centres unmarked) , IC50 observed: < 50 nM
